B1: HDV Ribozyme (parent)
chain: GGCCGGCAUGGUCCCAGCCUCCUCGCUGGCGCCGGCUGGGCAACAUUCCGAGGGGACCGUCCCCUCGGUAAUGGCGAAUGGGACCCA

# Variants of: B1
# Assay summary: self-cleavage, relative activity (ratio to wild type); higher = more cleavage; co-transcriptional
The reader will find reported self-cleavage values listed item by item below.

Sequence text: GGCCGGCAUGGUCCCAGCUACCUCGCUGGCGCCGGCUGGGCAACAUUCCGAGGGGACCGUCCCCUCGGUAAUGGCGAAUGGGACCCA [C19U U20A]
self-cleavage: 0.149
//
Sequence text: GGCCCGCAGGGUCCCAGCCUCCUCGCUGGCGCCGGCUGGGCAACAUUCCGAGGGGACCGUCCCCUCGGUAAUGGCGAAUGGGACCCA [G5C U9G]
self-cleavage: 0.111
//
Sequence text: GGCCGGCAUGGUCCCAGCCUCCUCGCUCGCGCCGGCUUGGCAACAUUCCGAGGGGACCGUCCCCUCGGUAAUGGCGAAUGGGACCCA [G28C G38U]
self-cleavage: 0.162
//
Sequence text: GGCCGGCAUGUUCCCAGCCUCCUCGCUGGCGCCGGCUGGGCAACAUUCCGAGGGGACCGUCCCCUCGGUAAUGGCGAAUGGGGCCCA [G11U A83G]
self-cleavage: 0.175
//
Sequence text: GGCCGGCAUGGUCCCAGACUCCUCGCUGGCGCCGGCUGGGCAACAUUCCGAGGGGACCGUCCCCUCGGUAAUGGCGAAUGGGACCAA [C18A C86A]
self-cleavage: 0.106
//
Sequence text: GGCCGGCAUGGUCACAGCCUCCUCGCUGGCGCCGGCUGGGCAACAUUCCGAGGGGACCGUCCCCUCGGUAAUGGCGAAUGGGACACA [C14A C85A]
self-cleavage: 0.623
//
Sequence text: GGCCGGCAUGGUCCCAGCCUCCUCACUGGCGCCGGCUGGGCAACAUUCCGAGGGGACCGUCUCCUCGGUAAUGGCGAAUGGGACCCA [G25A C62U]
self-cleavage: 0.182
//
Sequence text: GGCCGGCAUGGUCCCAGCCUCCUCGCUGGCGCCGGCUGGGCAACAUUCCGAGCGGACCGUCCCCUCGGUAAUGGCUAAUGGGACCCA [G53C G76U]
self-cleavage: 0.967
//
Sequence text: GGCCGGCAUGGUCCCAGCCUCCUCGCUGGCGCCGGCUGGGCAACAUUCCGGGGGGACCGUCCCCUCGGUAAUGGCCAAUGGGACCCA [A51G G76C]
self-cleavage: 0.831
//
Sequence text: GGCCGGCAUGGUCCCAGCCUCCGCGCUGGCGCCGGCGGGGCAACAUUCCGAGGGGACCGUCCCCUCGGUAAUGGCGAAUGGGACCCA [U23G U37G]
self-cleavage: 0.217
//
Sequence text: GGCCGGCAUGGUCCCAGCCUCCUCGCUGGCCCCGGCUGGGCAUCAUUCCGAGGGGACCGUCCCCUCGGUAAUGGCGAAUGGGACCCA [G31C A43U]
self-cleavage: 0.135
//
Sequence text: GGCCGGCACGGUCCCAGCCUCCUCGGUGGCGCCGGCUGGGCAACAUUCCGAGGGGACCGUCCCCUCGGUAAUGGCGAAUGGGACCCA [U9C C26G]
self-cleavage: 0.886
//
Sequence text: GGCCGGCAUGGUCCCAGCCUCCACGCUGGCGCCGGCUGGUCAACAUUCCGAGGGGACCGUCCCCUCGGUAAUGGCGAAUGGGACCCA [U23A G40U]
self-cleavage: 0.769
//
Sequence text: GGCCGGCAUGGUCCCAGCCUCCUCGCUCGCGCCGGCUGGGCAACAUUCCGAGGGGACCGGCCCCUCGGUAAUGGCGAAUGGGACCCA [G28C U60G]
self-cleavage: 0
//
Sequence text: GGCCGGCAUGGUCCCAGCCUCCUCGCUGGCGCCGGCCGGGCAACAUUCCGAGGGGACCGUCCCCUCUGUAAUGGCGAAUGGGACCCA [U37C G67U]
self-cleavage: 0.974
//
Sequence text: GGCCGGCAUGGUCCCAGCCUCCUCGCUGGCGCCGGCUGGGCAACAUUCCGAGGGGACCGUCCCCUCGGUUAUCGCGAAUGGGACCCA [A70U G73C]
self-cleavage: 0.332
//
Sequence text: GGCCGUCAUGGUCCCAGCCUCCUCGCUGGCGCCGGCUGGGCAACAUUCCGAGGGGACCGUCCCCACGGUAAUGGCGAAUGGGACCCA [G6U U65A]
self-cleavage: 0.431
//
Sequence text: GGCCGGCAUGGUCCCAGCCUCCUCGCUGGCGCCGGCUGGGGAACAUUCGGAGGGGACCGUCCCCUCGGUAAUGGCGAAUGGGACCCA [C41G C49G]
self-cleavage: 0.597
//
Sequence text: GGCCGGCAUGGUCCCAGCCUCCUCGCGGGCGCCGGCUGGGCAACAUUCCGAGGGGACCGUCCCCUCGGUAAUGGCGAAUGGCACCCA [U27G G82C]
self-cleavage: 0.237
//
Sequence text: GGCCGGCAUGGUCCCAGCCUCAUCGCUGGCGCCGGCUGGGCAACAUUCCGAGGGGACCGUCCCCUCGGUAAUGGCGGAUGGGACCCA [C22A A77G]
self-cleavage: 0.38
//
Sequence text: GGCCGGCAUCGUCCCAGCCUCCUCGCUGGCGCCUGCUGGGCAACAUUCCGAGGGGACCGUCCCCUCGGUAAUGGCGAAUGGGACCCA [G10C G34U]
self-cleavage: 0.175
//
Sequence text: GGCCGGCAUGGUCCCAGUCUCCUCGCUGGCGCCGGCUGGGCAACAUUCCGAGGGGACCGUCCCCUCGGUAAUGGCGAUUGGGACCCA [C18U A78U]
self-cleavage: 0.0707
//
Sequence text: GGCCGGCAUGGUCCCAGCCUCCUCGCUGGCGCCGGCUGGGCAAGAUUCCGAGGGGACCGUCCCCUCGGUAAUUGCGAAUGGGACCCA [C44G G73U]
self-cleavage: 0.397
//
Sequence text: GGCCGGCAUGGUCCCAGCCUCCUCGUUGGCGCCGGCUGGGCAACAUUCCGAGGGGACCGUCUCCUCGGUAAUGGCGAAUGGGACCCA [C26U C62U]
self-cleavage: 1.1
//
Sequence text: GGCCGGCAUGGUCCCAGCCUCCUCGCUAGCGCCGGCUGGGCAACAUUCCGAGGGGUCCGUCCCCUCGGUAAUGGCGAAUGGGACCCA [G28A A56U]
self-cleavage: 0.111
//
Sequence text: GGCCGGCAUGGUCCCUGCCUCCUCGCUGGCGCCGGCUGGGCAACAUUCCGAGGGGACCGUCCCCUCGGUAAUGGGGAAUGGGACCCA [A16U C75G]
self-cleavage: 0.119
//
Sequence text: GGCCGGCAUGGUCCCAGCCUCCUCGCUGGCGCCGGCUGGGCAACAUUCCGAGGGGAACGACCCCUCGGUAAUGGCGAAUGGGACCCA [C57A U60A]
self-cleavage: 0.898
//
Sequence text: GGCCGGCAUGGUCCCAGCCUCCUCGCUGGCGCCCGCUGGGCAACUUUCCGAGGGGACCGUCCCCUCGGUAAUGGCGAAUGGGACCCA [G34C A45U]
self-cleavage: 0.0378
//
Sequence text: GGCCGGCAUGGUCCCAGCCACCUCGCUGGCGCCGGCUGGGCAACAUUCCGAGGAGACCGUCCCCUCGGUAAUGGCGAAUGGGACCCA [U20A G54A]
self-cleavage: 0.116
//
Sequence text: GGCCGGCAGGGUCCCAGCCUCCUCGCUGGCGCCGGCUGGGCAACAUUCCGAGGGGACCGUCCCCUCGGUAAUAGCGAAUGGGACCCA [U9G G73A]
self-cleavage: 0.665
//
Sequence text: GGCCGGCAUGGUCCCAGCCUCCUCGCUGGCGCCGGCUGGGCAACAUUCCGAGGGGACCGUCCCCUCGGGAAUGGCGGAUGGGACCCA [U69G A77G]
self-cleavage: 1.29
//
Sequence text: GGCCGGCAUGGUCCCAGCCUCCUAGCUGGCGCCGGCUGGGCAACAUUCCGAGGGGACCGUCCCCUCCGUAAUGGCGAAUGGGACCCA [C24A G67C]
self-cleavage: 0.739
//
Sequence text: GGCCGGCAUGGUCCCAGCCUCCUCGCUGGCGCCGGCUGGGCAACAUUCCGAGGGGACCGUCCCCUCGGUAUUGGCGAAUCGGACCCA [A71U G80C]
self-cleavage: 0.185
//
Sequence text: GGCCGGCAUGGUCCCAGCCUCCUCGCUGGCGCCGGCUGGGCAACAUUCCGAGGGGACCGUCCCCUCGGUAAUGGCGAAUUGGACCCC [G80U A87C]
self-cleavage: 0.192
//
Sequence text: GGCCGGCAUGGUCCCAGCCUCCUCGCUGGCGCCGGCUGGGUAACAUUCCGAGGGGACCGUCCCCUCGGUAAUAGCGAAUGGGACCCA [C41U G73A]
self-cleavage: 0.929
//
Sequence text: GGCCGGCAUGGUCCCAGCCUCCUCGCUGGCGCCGGCUGGGCAACAUUCCGUGGGGACCGUCCCCUCGGUGAUGGCGAAUGGGACCCA [A51U A70G]
self-cleavage: 0.972
//
Sequence text: GGCCGACAUGGUCCCAGCCUCCUCGCUGGCGCCGGCUGGGAAACAUUCCGAGGGGACCGUCCCCUCGGUAAUGGCGAAUGGGACCCA [G6A C41A]
self-cleavage: 0.326
//
Sequence text: GGCCGGGAUGGUCCCAGCCUCCUCGCUGGCGCCGGCUGGGCAACAUUGCGAGGGGACCGUCCCCUCGGUAAUGGCGAAUGGGACCCA [C7G C48G]
self-cleavage: 0
//
Sequence text: GGCCGGCAUGGUCCCAGCCUCCUCGCUGGCGUCGGCUGGGCAACAUUCCGAGGGGACCGUCCCCUCGGUAAUGGCGUAUGGGACCCA [C32U A77U]
self-cleavage: 0.496
//
Sequence text: UGCCGGCAUGGUCCCAGCCUCCUCGCUGGCGCCGGCUGGGCAACAUUCCGAGGGGACCGUCCCCUCGGUAAUGGCGAAUGGAACCCA [G1U G82A]
self-cleavage: 0.241
//
Sequence text: GGCCGGCAUGGUCCCAGACUCCUCGCUGGCGCCGGCUGGGCAACAUUCCGAGGGGACCGUCCCCUCGGUAAUAGCGAAUGGGACCCA [C18A G73A]
self-cleavage: 0.0755
//
Sequence text: GGACGGCAUGGUCCCAGCCUCCUCGCUGGCGCCGGCUGGGCAACACUCCGAGGGGACCGUCCCCUCGGUAAUGGCGAAUGGGACCCA [C3A U46C]
self-cleavage: 0.173
//
Sequence text: GGCCGGCAUGGUCCCAGCCUCCUCGCUGGCGCCGGCUGGGCGACAUUCCGAGGGGACCGUCCCCUCGGUAAUGGCGCAUGGGACCCA [A42G A77C]
self-cleavage: 0.0723
//
Sequence text: GGCCGGCAUGGUCCAAGCCUCCUCGCUGGCGCCGGCUGAGCAACAUUCCGAGGGGACCGUCCCCUCGGUAAUGGCGAAUGGGACCCA [C15A G39A]
self-cleavage: 0.095
//
Sequence text: GGCCGGCAUGGUCCCAGCCUCCUCGCUGGCGCCGGCUGGGCAACAUUCCGAGGGGACCGUCCCCUCGGUAAUGGCCGAUGGGACCCA [G76C A77G]
self-cleavage: 1
//
Sequence text: GGCCGGCAUGGGCCCAGCCUCCUCGCUGGCGCCGGCUGGGCAACAUUCCGAGGGGACCGUCCCCUCGGUAAUGGCGAAUGGGACGCA [U12G C85G]
self-cleavage: 0.369

The measurements presented in this section are drawn from the RNAGym collection of RNA variant scans (doi:10.7554/elife.80360).
